Just for reference, the NIST ThermoML archive (doi:10.1007/s10765-014-1617-1) is where these values come from.

Details: 308.15 K; 101.33 kPa; Liquid; Vibrating tube method
mass density strictly under 1000 kg/m3 means Fulfilled; at 1000 kg/m3 or over means Not fulfilled.

*Q* Does CCn1cc[n+](C)c1.N#C[C-](C#N)C#N [1-ethyl-3-methyl-1H-imidazolium tricyanomethanide] have mass density strictly under 1000 kg/m3?
*A* Not fulfilled

*Q* Param item: CCCCCCCCCCn1cc[n+](C)c1.N#C[B-](C#N)(C#N)C#N [1-decyl-3-methyl-1H-imidazolium tetracyanoborate]
*A* Fulfilled

*Q* Param item: CCCCCCCCn1cc[n+](C)c1.N#C[B-](C#N)(C#N)C#N [1-methyl-3-octylimidazolium tetracyanoborate]
*A* Fulfilled
